System: OVCAR-5 ovarian
method.notes: NCI tumour cell line growth inhibition, 48 h
Give measured TGI for each item. Keep answers brief.

Give the reported TGI for this compound. CC(C)=CCC[C@@H](C)C1=C(O)C(Nc2ccccc2F)=C(C)C(=O)C1=O
> 100 µM

Give the reported TGI for this compound. CC(C)(C)n1cc(-c2ccnc(NCCCNS(=O)(=O)c3ccc(Cl)cc3)c2)c(-c2cccc(O)c2)n1
3.19 µM

Give the reported TGI for this compound. CC(=O)O[C@H]1CC[C@H]2[C@@H]3CC[C@H]4Nc5c(cnn5S(C)(=O)=O)C[C@]4(C)[C@H]3CC[C@]12C
> 100 µM

Give the reported TGI for this compound. CS(=O)(=O)OC1CCN(C2(c3cccc(O)c3)CCCCC2)CC1
> 100 µM

Give the reported TGI for this compound. C/C=C/COc1cc(NC(=S)c2ccoc2C)ccc1OC
> 100 µM
